Here, each record is paired with measured Na data.
organism: Rattus norvegicus; assay: Open TG-GATES - Regimen: Single; assay type: toxicity, organism-based, Sprague-Dawley; set-up: regimen Single, gender Male, age 6 weeks; conditions: in vivo, po, 1000 mg/kg, 24 h, tissue Plasma, route gavage, dose level High
Write the value in meq/L as a bare number.

[
  {
    "structure_smiles": "COC(=O)C1=C(C)NC(C)=C(C(=O)OC)C1c1ccccc1[N+](=O)[O-]",
    "Na, meq/L": 143
  },
  {
    "structure_smiles": "CN/C(=N/CCSCc1nc[nH]c1C)NC#N",
    "Na, meq/L": 140
  },
  {
    "structure_smiles": "Cc1nnc2n1-c1ccc(Cl)cc1C(c1ccccc1Cl)=NC2",
    "Na, meq/L": 141.4
  },
  {
    "structure_smiles": "CNC(=C[N+](=O)[O-])NCCSCc1ccc(CN(C)C)o1",
    "Na, meq/L": 140.4
  }
]

Here is the next item to consider.
// recorded Na for O=C(OC[C@H]1O[C@@H](OC(=O)c2cc(O)c(O)c(OC(=O)c3cc(O)c(O)c(O)c3)c2)[C@H](OC(=O)c2cc(O)c(O)c(OC(=O)c3cc(O)c(O)c(O)c3)c2)[C@@H](OC(=O)c2cc(O)c(O)c(OC(=O)c3cc(O)c(O)c(O)c3)c2)[C@@H]1OC(=O)c1cc(O)c(O)c(OC(=O)c2cc(O)c(O)c(O)c2)c1)c1cc(O)c(O)c(OC(=O)c2cc(O)c(O)c(O)c2)c1 : 138.6

----------
Here, each record is paired with measured KIDNEY_TOTAL data.
species: Rattus norvegicus; test: Open TG-GATES - Regimen: Daily Repeat; format: toxicity, organism-based, Sprague-Dawley; parameters: regimen Daily Repeat, gender Male, age 6 weeks; conditions: in vivo, po, 100 mg/kg, […], tissue Kidney, route gavage, dose level Low, time 28 day
Write the value in g as a bare number.

[
  {
    "molecule": "COC(=O)C1=C(C)NC(C)=C(C(=O)OC)C1c1ccccc1[N+](=O)[O-] [NIFEDIPINE]",
    "KIDNEY_TOTAL (g)": 2.6
  }
]

// recorded KIDNEY_TOTAL for O=C(OC[C@H]1O[C@@H](OC(=O)c2cc(O)c(O)c(OC(=O)c3cc(O)c(O)c(O)c3)c2)[C@H](OC(=O)c2cc(O)c(O)c(OC(=O)c3cc(O)c(O)c(O)c3)c2)[C@@H](OC(=O)c2cc(O)c(O)c(OC(=O)c3cc(O)c(O)c(O)c3)c2)[C@@H]1OC(=O)c1cc(O)c(O)c(OC(=O)c2cc(O)c(O)c(O)c2)c1)c1cc(O)c(O)c(OC(=O)c2cc(O)c(O)c(O)c2)c1 [TANNIC ACID] : 2.9

// recorded KIDNEY_TOTAL for CNC(=C[N+](=O)[O-])NCCSCc1ccc(CN(C)C)o1 [RANITIDINE] : 2.7

// recorded KIDNEY_TOTAL for Cc1nnc2n1-c1ccc(Cl)cc1C(c1ccccc1Cl)=NC2 [TRIAZOLAM] : 2.8

// recorded KIDNEY_TOTAL for CN/C(=N/CCSCc1nc[nH]c1C)NC#N [CIMETIDINE] : 2.8

// recorded KIDNEY_TOTAL for CCOc1ccc(NC(C)=O)cc1 [PHENACETIN] : 2.8

----------
Here, each record is paired with measured APTT data.
species on record: Rattus norvegicus; assay: Open TG-GATES - Regimen: Single; assay type: toxicity, organism-based, Sprague-Dawley; design: regimen Single, gender Male, age 6 weeks; conditions: in vivo, po, 100 mg/kg, 9 h, tissue Blood, route gavage, dose level Low
Write the value in s as a bare number.

Observe how each entry below is paired with its result.
[
  {
    "structure_smiles": "Cc1nnc2n1-c1ccc(Cl)cc1C(c1ccccc1Cl)=NC2",
    "APTT [s]": 18.1
  },
  {
    "structure_smiles": "O=C(OC[C@H]1O[C@@H](OC(=O)c2cc(O)c(O)c(OC(=O)c3cc(O)c(O)c(O)c3)c2)[C@H](OC(=O)c2cc(O)c(O)c(OC(=O)c3cc(O)c(O)c(O)c3)c2)[C@@H](OC(=O)c2cc(O)c(O)c(OC(=O)c3cc(O)c(O)c(O)c3)c2)[C@@H]1OC(=O)c1cc(O)c(O)c(OC(=O)c2cc(O)c(O)c(O)c2)c1)c1cc(O)c(O)c(OC(=O)c2cc(O)c(O)c(O)c2)c1",
    "APTT [s]": 16.4
  },
  {
    "structure_smiles": "COC(=O)C1=C(C)NC(C)=C(C(=O)OC)C1c1ccccc1[N+](=O)[O-]",
    "APTT [s]": 15.8
  }
]

// recorded APTT for CN/C(=N/CCSCc1nc[nH]c1C)NC#N : 20.3

// recorded APTT for CNC(=C[N+](=O)[O-])NCCSCc1ccc(CN(C)C)o1 : 19.1

----------
species: Rattus norvegicus; experiment: Open TG-GATES - Regimen: Single; format: toxicity, organism-based, Sprague-Dawley; design: regimen Single, gender Male, age 6 weeks; settings: in vivo, po, 100 mg/kg, 24 h, tissue Plasma, route gavage, dose level Low
Where ALP equals or exceeds 1000 IU/L, the correct label is Criterion met; where it does not, the label is Criterion not met.

Sample answers from the record:
[
  {
    "compound": "Cc1nnc2n1-c1ccc(Cl)cc1C(c1ccccc1Cl)=NC2 [TRIAZOLAM]",
    "class_assignment": "Criterion met"
  },
  {
    "compound": "COC(=O)C1=C(C)NC(C)=C(C(=O)OC)C1c1ccccc1[N+](=O)[O-] [NIFEDIPINE]",
    "class_assignment": "Criterion met"
  }
]

Could you tell me if the measured ALP of CNC(=C[N+](=O)[O-])NCCSCc1ccc(CN(C)C)o1 [RANITIDINE] reaches 1000 IU/L or more?
Criterion not met

Could you tell me if the measured ALP of O=C(OC[C@H]1O[C@@H](OC(=O)c2cc(O)c(O)c(OC(=O)c3cc(O)c(O)c(O)c3)c2)[C@H](OC(=O)c2cc(O)c(O)c(OC(=O)c3cc(O)c(O)c(O)c3)c2)[C@@H](OC(=O)c2cc(O)c(O)c(OC(=O)c3cc(O)c(O)c(O)c3)c2)[C@@H]1OC(=O)c1cc(O)c(O)c(OC(=O)c2cc(O)c(O)c(O)c2)c1)c1cc(O)c(O)c(OC(=O)c2cc(O)c(O)c(O)c2)c1 [TANNIC ACID] reaches 1000 IU/L or more?
Criterion not met

Could you tell me if the measured ALP of CN/C(=N/CCSCc1nc[nH]c1C)NC#N [CIMETIDINE] reaches 1000 IU/L or more?
Criterion met

----------
organism: Rattus norvegicus; assay: Open TG-GATES - Regimen: Daily Repeat; assay type: toxicity, organism-based, Sprague-Dawley; set-up: regimen Daily Repeat, gender Male, age 6 weeks; settings: in vivo, po, 1000 mg/kg, […], tissue Blood, route gavage, dose level High, time 7 day
Here, each record is paired with measured Ret data.
Write the value in % as a bare number.

[
  {
    "compound": "CN/C(=N/CCSCc1nc[nH]c1C)NC#N [CIMETIDINE]",
    "Ret (%)": 5
  },
  {
    "compound": "CCOc1ccc(NC(C)=O)cc1 [PHENACETIN]",
    "Ret (%)": 17.7
  },
  {
    "compound": "CNC(=C[N+](=O)[O-])NCCSCc1ccc(CN(C)C)o1 [RANITIDINE]",
    "Ret (%)": 5
  }
]

// recorded Ret for Cc1nnc2n1-c1ccc(Cl)cc1C(c1ccccc1Cl)=NC2 [TRIAZOLAM] : 5.5

// recorded Ret for O=C(OC[C@H]1O[C@@H](OC(=O)c2cc(O)c(O)c(OC(=O)c3cc(O)c(O)c(O)c3)c2)[C@H](OC(=O)c2cc(O)c(O)c(OC(=O)c3cc(O)c(O)c(O)c3)c2)[C@@H](OC(=O)c2cc(O)c(O)c(OC(=O)c3cc(O)c(O)c(O)c3)c2)[C@@H]1OC(=O)c1cc(O)c(O)c(OC(=O)c2cc(O)c(O)c(O)c2)c1)c1cc(O)c(O)c(OC(=O)c2cc(O)c(O)c(O)c2)c1 [TANNIC ACID] : 7.4

// recorded Ret for COC(=O)C1=C(C)NC(C)=C(C(=O)OC)C1c1ccccc1[N+](=O)[O-] [NIFEDIPINE] : 5.9

----------
species: Rattus norvegicus; assay: Open TG-GATES - Regimen: Single; assay type: toxicity, organism-based, Sprague-Dawley; set-up: regimen Single, gender Male, age 6 weeks; settings: in vivo, po, 100 mg/kg, 24 h, tissue Blood, route gavage, dose level Low
Here, each record is paired with measured MCV data.
Write the value in fL as a bare number.

[
  {
    "molecule": "Cc1nnc2n1-c1ccc(Cl)cc1C(c1ccccc1Cl)=NC2 [TRIAZOLAM]",
    "units_label": "fL",
    "MCV": 63.2
  }
]

Here is the next item to consider.
// recorded MCV for O=C(OC[C@H]1O[C@@H](OC(=O)c2cc(O)c(O)c(OC(=O)c3cc(O)c(O)c(O)c3)c2)[C@H](OC(=O)c2cc(O)c(O)c(OC(=O)c3cc(O)c(O)c(O)c3)c2)[C@@H](OC(=O)c2cc(O)c(O)c(OC(=O)c3cc(O)c(O)c(O)c3)c2)[C@@H]1OC(=O)c1cc(O)c(O)c(OC(=O)c2cc(O)c(O)c(O)c2)c1)c1cc(O)c(O)c(OC(=O)c2cc(O)c(O)c(O)c2)c1 [TANNIC ACID] : 65.6
